- Tested on: P. aeruginosa PAO1
- METHOD SUMMARY: Growth assay, standard plate counts
- Assay type: cell-based, Pseudomonas aeruginosa
- STATED CONDITIONS: 800 µM, 24 h; Exp. 1 (untreated control 9.082)
- Method: The effects of BmKn‒2 peptide and its derivatives on growth of P. aeruginosa PAO1 were carried out as described previously with some modifications. Bacterial suspension (10^6 CFU/mL) and the test peptides (800 μM, final concentration) were incubated at 37 ^OC at 150 rpm. Bacterial culture without the test peptides was used as the untreated control. After 24 h, bacterial concentration was evaluated. […] Following incubation at 37°C for 24 h, the colonies were counted and expressed as log10 CFU/mL.
Where no end group is shown, it is not given here.
Please use Condition met whenever Bacterial growth, Log10 CFU/mL is not below 9 Log10 CFU/mL, and Condition not met whenever it is.

Please review the entries below; each comes with its answer.
* FIGAIARLLSKI [BmKn-21] | Condition not met
* FIGAIARLLSKIF [BmKn-2, reference compound] | Condition not met
* FIGAIARLLS [BmKn-23] | Condition met

Now for another entry.
Test whether the substance FIGAIARLL [BmKn-24] records Bacterial growth, Log10 CFU/mL of 9 Log10 CFU/mL or higher. Condition met
